B1: ATE1 (parent)
chain: DYFPSEDFYRCGYCKNESGSRSNG

Variants of: B1
assayNotes: protein stability index of a GFP-peptide fusion (GPS, HEK-293T) (PSI 1-6); higher = more stable;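 also: lentivirally expressed fusions sorted by FACS into six bins by GFP to DsRed ratio, PSI derived from sequencing read proportions per bin multiplied by bin number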
conditionSet: c terminus: a fixed tail appended
property: protein stability index

- DYFPSEDFYRCGYCKRESGSRSNG: 2.1
- DYFPSEDFYRCTYCKNESGSRSNG: 2.99
- DYFPSEKFYRCGYCKNESGSRSNG: 2.53
- DYFPSEWFYRCGYCKNESGSRSNG: 1.7
- DYFPLEDFYRCGYCKNESGSRSNG: 1.61
- DYFPSEDFYRCGYVKNESGSRSNG: 4.1
- DYFPSEDFWRCGYCKNESGSRSNG: 2.46
- DYFPSEDFYRCFYCKNESGSRSNG: 3.18
- DYFPSEDFYRMGYCKNESGSRSNG: 4.12
- DYFPSEDFYRCGYCKNLSGSRSNG: 2.17
- DYFPSEDFYRCGSCKNESGSRSNG: 3.69
- DYFPSEDFYRCGYCKWESGSRSNG: 1.41
- DYFPSEDFYRCGYTKNESGSRSNG: 4.36
